For each entry below, report its yeast fitness value.
B1: tRNA (parent)
chain: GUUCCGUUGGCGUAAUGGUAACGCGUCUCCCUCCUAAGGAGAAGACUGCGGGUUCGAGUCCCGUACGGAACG

variants of: B1; assay: yeast fitness relative to wild type (ratio to wild type); higher = fitter; tRNA-Arg(CCU), competitive growth, 37 C, YPD
Fewer inactive variants are shown than the library holds.
Number only, please.

Fill blank: measured yeast fitness of the variant GUUCCGUUGGCGUAGAGGUGACGCGUCUCCCUCCUAAGGAGGAGACUGCGGGUUCGAGUCCCGUACGGAACG [A15G U16A A20G A42G] is ____.
0.577

Can you look up the measured yeast fitness of GUUCCAUUGGCGUAAUGGUAACGCGUCUCCCUCCUAAGGAGAAGACUGCGGGUUCGAGUCCCGAACGGAACG [G6A U64A] for me?
0.71

# query: yeast fitness of entry GUUCCGUUGGGGUAAUGGGAACGCGUCUCCCUCCUAAGGAGAAGACUGCGGGUUCGAGUCCCGUACGGAACG [C11G U19G]
0.577

Value lookup for yeast fitness; key = GUUCCGUUGCCGUAAUGGUAACGCGUCUCCCUCCUAAGGAGAAGACUGCGCGUUCGAGUCCCGUACGGAACG [G10C G51C]
0.535

Value lookup for yeast fitness; key = GUUCCGUUGGCGUAAUGGUAACGUGUCUCCCUCCUAAGGAGAAGACAGCGGGUUCGAGUCCCGUACGGAACG [C24U U47A]
0.683

Item under review: GUUCCGUUGGCGUAAUGGUAACGCAUCUCCCACCUAAGGAGAAGACUGCGGGUUCGAGUCCCGUACGGAACG [G25A U32A] . Reported yeast fitness?
0.744

Please give the measured yeast fitness for this variant: GUUCUGUUGGCGUAAUGGUAACGCGUCUCCCUCCUAAGGAGAAGCCUGUGGGUUCAAGUCCCGUACGGAACG [C5U A45C C49U G56A]
0.616

Suppose we examine the variant GUUCCGUUGGCGUAAUGGUGACGCGUCUCCCUCCUAAGGAGACGACUGCGGGUUCGUGUCCCGUACGGAACG [A20G A43C A57U] ; what yeast fitness value has been reported?
0.538

Bench note: what yeast fitness did GUUCCGUUGGCGUUAUGGUAACGCGUCUCCCUCCUAAGGAGAAGACUGCGGGUUGGAGUCCCGUACGGAACG [A14U C55G] show?
0.578

Item GUUCGGUUGGCGUAAUGGUAACGCGUCUCCCUCCUAAGAAGAAGACUGUGGGUUCGAGUCCCGUACGGAACG [C5G G39A C49U] has what recorded yeast fitness?
0.524

Request the reported yeast fitness associated with GUUCCGUUGGCGUAAUGGUAACGCGUCUCCCUCCUAAGGAGGAGACUGCGGGUUCGACUCCCGUACGGAUCG [A42G G58C A70U]
0.748
